- Tested on: 598228-144-R-J1-PDC complex spheroids, viability
- Test Summary: Anticancer human tumor 598228-144-R-J1-PDC patient-derived serous endometrial adenocarcinoma cell line growth inhibition [CLK]
- Condition Details: second compound 0.0316 µM; first compound 3.16 µM; stronger effect = lower value
Kindly apply the following: Fulfilled if viability, T/C is less than 70%, Not fulfilled in every other case.

These solved cases illustrate the format of a correct answer.
Nc1ccn(C2OC(CO)C(O)C2(F)F)c(=O)n1 (stereo not given) + CN1CCN(c2cc(C(=O)Nc3cc4cc(-c5cnn(C)c5)ccc4cn3)ccn2)CC1
Fulfilled
CC1(C)CCC(CN2CCN(c3ccc(C(=O)NS(=O)(=O)c4ccc(NCC5CCOCC5)c([N+](=O)[O-])c4)c(Oc4cnc5[nH]ccc5c4)c3)CC2)=C(c2ccc(Cl)cc2)C1 + CN1CCN(c2cc(C(=O)Nc3cc4cc(-c5cnn(C)c5)ccc4cn3)ccn2)CC1
Not fulfilled
C=C(F)C(=O)N1CCN(c2nc(OCC3CCCN3C)nc3c2CCN(c2cccc4cccc(Cl)c24)C3)CC1CC#N (stereo not given) + CNC(=O)c1ccc(Nc2nc(OC3CCCC3)c3c(-c4ccc5nc(C)oc5c4)c[nH]c3n2)c(OC)c1
Not fulfilled
COC1C=CCC(C)C(C)S(=O)(=O)NC(=O)c2ccc3c(c2)N(CC2CCC21)CC1(CCCc2cc(Cl)ccc21)CO3 (stereo not given) + CNC(=O)c1ccc(Nc2nc(OC3CCCC3)c3c(-c4ccc5nc(C)oc5c4)c[nH]c3n2)c(OC)c1
Fulfilled

Note: attention shifts to another entry.
Exercise: hey, is viability, T/C for COc1ccc([C@@H](O)c2cc(-c3ncnc4cc(N5CCOCC5)ccc34)c(F)cc2Cl)nn1 + CN1CCN(c2cc(C(=O)Nc3cc4cc(-c5cnn(C)c5)ccc4cn3)ccn2)CC1 lower than 70% or not?
Key: Fulfilled

* * *

- Tested on: 598228-144-R-J1-PDC complex spheroids, viability
- Test Summary: Anticancer human tumor 598228-144-R-J1-PDC cell line growth inhibition [CLK];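 also: spheroids exposed to compounds for seven days before readout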
- Condition Details: curve of first compound; second compound 10 µM
Outcome Measure: IC50

Use the examples below as a reference point.
CC1(C)CCC(CN2CCN(c3ccc(C(=O)NS(=O)(=O)c4ccc(NCC5CCOCC5)c([N+](=O)[O-])c4)c(Oc4cnc5[nH]ccc5c4)c3)CC2)=C(c2ccc(Cl)cc2)C1 + CN1CCN(c2cc(C(=O)Nc3cc4cc(-c5cnn(C)c5)ccc4cn3)ccn2)CC1
< 31.6 nM
C=C(F)C(=O)N1CCN(c2nc(OCC3CCCN3C)nc3c2CCN(c2cccc4cccc(Cl)c24)C3)CC1CC#N (centres undefined) + CN1CCN(c2cc(C(=O)Nc3cc4cc(-c5cnn(C)c5)ccc4cn3)ccn2)CC1
< 31.6 nM

Reported IC50 ( CC(=O)O[C@H]1C(=O)[C@@]2(C)[C@H]([C@H](OC(=O)c3ccccc3)[C@]3(O)C[C@H](OC(=O)[C@H](O)[C@@H](NC(=O)c4ccccc4)c4ccccc4)C(C)=C1C3(C)C)[C@]1(OC(C)=O)CO[C@@H]1C[C@@H]2O + CN1CCN(c2cc(C(=O)Nc3cc4cc(-c5cnn(C)c5)ccc4cn3)ccn2)CC1 ) = < 31.6 nM

Reported IC50 ( NC(=O)C(=Cn1cnc(-c2cc(C(F)(F)F)cc(C(F)(F)F)c2)n1)c1cncnc1 + CNC(=O)c1ccc(Nc2nc(OC3CCCC3)c3c(-c4ccc5nc(C)oc5c4)c[nH]c3n2)c(OC)c1 ) = 160 nM

* * *

- Test system: 598228-144-R-J1-PDC complex spheroids, viability
- Test Summary: Anticancer human tumor 598228-144-R-J1-PDC cell line growth inhibition [CLK];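 also: spheroids exposed to compounds for seven days before readout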;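 as to viability, T/C: 100% = DMSO vehicle control wells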
- Condition Details: second compound 10 µM; first compound 3.16 µM; stronger effect = lower value
The molecules listed here are annotated with their viability, T/C.
Report the figure in % without appending any unit label.

CCCS(=O)(=O)Nc1ccc(F)c(C(=O)c2c[nH]c3ncc(-c4ccc(Cl)cc4)cc23)c1F + CNC(=O)c1ccc(Nc2nc(OC3CCCC3)c3c(-c4ccc5nc(C)oc5c4)c[nH]c3n2)c(OC)c1
67.5
COC1C=CCC(C)C(C)S(=O)(=O)NC(=O)c2ccc3c(c2)N(CC2CCC21)CC1(CCCc2cc(Cl)ccc21)CO3 (stereo not drawn) + CNC(=O)c1ccc(Nc2nc(OC3CCCC3)c3c(-c4ccc5nc(C)oc5c4)c[nH]c3n2)c(OC)c1
58.3
CC(CO)NC(=O)c1cc(-c2ccc(Cl)cc2)nn(-c2cnn(C)c2)c1=O (stereo not drawn) + CN1CCN(c2cc(C(=O)Nc3cc4cc(-c5cnn(C)c5)ccc4cn3)ccn2)CC1
3.43
C=CC(=O)N1CCN(c2nc(=O)n(-c3c(C)ccnc3C(C)C)c3nc(-c4c(O)cccc4F)c(F)cc23)C(C)C1 (stereo not drawn) + CNC(=O)c1ccc(Nc2nc(OC3CCCC3)c3c(-c4ccc5nc(C)oc5c4)c[nH]c3n2)c(OC)c1
101
C=CC(=O)N1CCN(c2nc(=O)n(-c3c(C)ccnc3C(C)C)c3nc(-c4c(O)cccc4F)c(F)cc23)C(C)C1 (stereo not drawn) + CN1CCN(c2cc(C(=O)Nc3cc4cc(-c5cnn(C)c5)ccc4cn3)ccn2)CC1
4.19
O=c1[nH]cc(F)c(=O)[nH]1 + CNC(=O)c1ccc(Nc2nc(OC3CCCC3)c3c(-c4ccc5nc(C)oc5c4)c[nH]c3n2)c(OC)c1
77.8

Reported viability, T/C ( Nc1ccn(C2OC(CO)C(O)C2(F)F)c(=O)n1 (stereo not drawn) + CNC(=O)c1ccc(Nc2nc(OC3CCCC3)c3c(-c4ccc5nc(C)oc5c4)c[nH]c3n2)c(OC)c1 ) = 26.5

Reported viability, T/C ( COc1ccc([C@@H](O)c2cc(-c3ncnc4cc(N5CCOCC5)ccc34)c(F)cc2Cl)nn1 + CN1CCN(c2cc(C(=O)Nc3cc4cc(-c5cnn(C)c5)ccc4cn3)ccn2)CC1 ) = 3.59

Reported viability, T/C ( COc1ccc([C@@H](O)c2cc(-c3ncnc4cc(N5CCOCC5)ccc34)c(F)cc2Cl)nn1 + CNC(=O)c1ccc(Nc2nc(OC3CCCC3)c3c(-c4ccc5nc(C)oc5c4)c[nH]c3n2)c(OC)c1 ) = 38.9

Reported viability, T/C ( O=C(c1cc(Cc2n[nH]c(=O)c3ccccc23)ccc1F)N1CCN(C(=O)C2CC2)CC1 + CN1CCN(c2cc(C(=O)Nc3cc4cc(-c5cnn(C)c5)ccc4cn3)ccn2)CC1 ) = 1.89

Reported viability, T/C ( CC(Nc1ccc2c(c1)OCCn1cc(N3C(=O)OCC3C(F)F)nc1-2)C(N)=O (stereo not drawn) + CN1CCN(c2cc(C(=O)Nc3cc4cc(-c5cnn(C)c5)ccc4cn3)ccn2)CC1 ) = 4.05

Reported viability, T/C ( CC1COCCN1c1cc(C2(S(C)(=N)=O)CC2)nc(-c2ccnc3[nH]ccc23)n1 (stereo not drawn) + CNC(=O)c1ccc(Nc2nc(OC3CCCC3)c3c(-c4ccc5nc(C)oc5c4)c[nH]c3n2)c(OC)c1 ) = 46.9

Reported viability, T/C ( COc1cccc2c1C(=O)c1c(O)c3c(c(O)c1C2=O)CC(O)(C(=O)CO)CC3OC1CC(N)C(O)C(C)O1 (stereo not drawn) + CNC(=O)c1ccc(Nc2nc(OC3CCCC3)c3c(-c4ccc5nc(C)oc5c4)c[nH]c3n2)c(OC)c1 ) = 1.63

* * *

- System: 598228-144-R-J1-PDC complex spheroids, viability
- Test Summary: Anticancer human tumor 598228-144-R-J1-PDC cell line growth inhibition [CLK];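 also: spheroids exposed to compounds for seven days before readout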
- Condition Details: curve of first compound; second compound 0.316 µM
The molecules listed here are annotated with their IC50.

CC1COCCN1c1cc(C2(S(C)(=N)=O)CC2)nc(-c2ccnc3[nH]ccc23)n1 (stereo not given) + CNC(=O)c1ccc(Nc2nc(OC3CCCC3)c3c(-c4ccc5nc(C)oc5c4)c[nH]c3n2)c(OC)c1
> 10 µM
C=C(F)C(=O)N1CCN(c2nc(OCC3CCCN3C)nc3c2CCN(c2cccc4cccc(Cl)c24)C3)CC1CC#N (stereo not given) + CN1CCN(c2cc(C(=O)Nc3cc4cc(-c5cnn(C)c5)ccc4cn3)ccn2)CC1
< 0.0316 µM
CC(Nc1ccc2c(c1)OCCn1cc(N3C(=O)OCC3C(F)F)nc1-2)C(N)=O (stereo not given) + CNC(=O)c1ccc(Nc2nc(OC3CCCC3)c3c(-c4ccc5nc(C)oc5c4)c[nH]c3n2)c(OC)c1
0.248 µM
CCCS(=O)(=O)Nc1ccc(F)c(C(=O)c2c[nH]c3ncc(-c4ccc(Cl)cc4)cc23)c1F + CN1CCN(c2cc(C(=O)Nc3cc4cc(-c5cnn(C)c5)ccc4cn3)ccn2)CC1
< 0.0316 µM
Nc1ccccc1NC(=O)c1ccc(CNC(=O)OCc2cccnc2)cc1 + CNC(=O)c1ccc(Nc2nc(OC3CCCC3)c3c(-c4ccc5nc(C)oc5c4)c[nH]c3n2)c(OC)c1
2 µM

Reported IC50 ( CCCS(=O)(=O)Nc1ccc(F)c(C(=O)c2c[nH]c3ncc(-c4ccc(Cl)cc4)cc23)c1F + CNC(=O)c1ccc(Nc2nc(OC3CCCC3)c3c(-c4ccc5nc(C)oc5c4)c[nH]c3n2)c(OC)c1 ) = 9.64 µM

Reported IC50 ( CC1(C)CCC(CN2CCN(c3ccc(C(=O)NS(=O)(=O)c4ccc(NCC5CCOCC5)c([N+](=O)[O-])c4)c(Oc4cnc5[nH]ccc5c4)c3)CC2)=C(c2ccc(Cl)cc2)C1 + CNC(=O)c1ccc(Nc2nc(OC3CCCC3)c3c(-c4ccc5nc(C)oc5c4)c[nH]c3n2)c(OC)c1 ) = 6.42 µM

Reported IC50 ( Nc1ccn(C2OC(CO)C(O)C2(F)F)c(=O)n1 (stereo not given) + CN1CCN(c2cc(C(=O)Nc3cc4cc(-c5cnn(C)c5)ccc4cn3)ccn2)CC1 ) = < 0.0316 µM

Reported IC50 ( COc1c(OCCCN2CCOCC2)ccc2c3n(c(=NC(=O)c4cnc(N)nc4)nc12)CCN3 + CNC(=O)c1ccc(Nc2nc(OC3CCCC3)c3c(-c4ccc5nc(C)oc5c4)c[nH]c3n2)c(OC)c1 ) = 0.0184 µM

Reported IC50 ( COC1C=CCC(C)C(C)S(=O)(=O)NC(=O)c2ccc3c(c2)N(CC2CCC21)CC1(CCCc2cc(Cl)ccc21)CO3 (stereo not given) + CNC(=O)c1ccc(Nc2nc(OC3CCCC3)c3c(-c4ccc5nc(C)oc5c4)c[nH]c3n2)c(OC)c1 ) = 1.13 µM
